Just for reference, patent US9145392B2 is where these values come from.

Target: P70S6K (T412E mutant) (Homo sapiens (Human), UniProt P23443, T412E)
Sequence (P23443 whole entry T412E): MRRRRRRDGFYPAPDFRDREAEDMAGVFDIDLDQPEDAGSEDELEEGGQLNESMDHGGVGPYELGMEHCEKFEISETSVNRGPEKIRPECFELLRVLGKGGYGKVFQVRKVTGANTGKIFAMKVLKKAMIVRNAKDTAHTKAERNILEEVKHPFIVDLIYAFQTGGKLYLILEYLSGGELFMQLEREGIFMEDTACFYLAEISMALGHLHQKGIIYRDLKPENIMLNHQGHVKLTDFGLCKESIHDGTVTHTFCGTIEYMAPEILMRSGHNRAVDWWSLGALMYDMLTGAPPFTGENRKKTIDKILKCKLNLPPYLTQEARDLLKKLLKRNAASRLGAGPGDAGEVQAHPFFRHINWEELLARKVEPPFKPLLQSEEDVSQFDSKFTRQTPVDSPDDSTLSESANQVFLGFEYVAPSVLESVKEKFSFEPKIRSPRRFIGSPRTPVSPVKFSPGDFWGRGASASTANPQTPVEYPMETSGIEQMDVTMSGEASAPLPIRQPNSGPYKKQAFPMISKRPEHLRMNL
Test: P70S6K enzyme assay
Format: biochemical
Conditions: read-out: IC50 p70S6K
pIC50: −log10 of the molar value.
pIC50 values for the compounds below.
parameter-measured: pIC50

- compound: "CCNCCn1cc(-c2ccc(F)c(C(F)(F)F)c2)nc1C1CCN(c2ncnc(N)c2OC(C)C)CC1 [Compound 174]"
  result-number: 9.36
- compound: "COCCNCCn1cc(-c2ccc(F)c(C(F)(F)F)c2)nc1C1CCN(c2ncnc(N)c2C#N)CC1 [Compound 364]"
  result-number: 8.85
- compound: "COc1c(N)ncnc1N1CCC(c2nc(-c3ccc(F)c(C(F)(F)F)c3)cn2CCN2CCC2)CC1 [Compound 97]"
  result-number: 8.66
- compound: "CC(C)c1cc(-c2cn(CCN3CCC3)c(C3CCN(c4ncnc(N)c4C(N)=O)CC3)n2)ccn1 [Compound 332]"
  result-number: 8.42
- compound: "NC(=O)c1c(N)ncnc1N1CCC(c2nc(-c3ccc(F)c(OC(F)F)c3)cn2CCN2CCC2)CC1 [Compound 338]"
  result-number: 8.70
- compound: "Cc1cc(-c2cn(CC3CNC3)c(C3CCN(c4ncnc(N)c4C(C)C)CC3)n2)ccc1F [Compound 189]"
  result-number: 8.96
- compound: "Cn1cc(-c2ccc(F)c(C(F)(F)F)c2)nc1C1CCN(c2ncnc(N)c2-c2ccc(C(F)(F)F)cc2)CC1 [Compound 16]"
  result-number: 7.68

----------
Target: His-AKT (Full Length) (Homo sapiens (Human), UniProt P31749)
Sequence (P31749 whole entry): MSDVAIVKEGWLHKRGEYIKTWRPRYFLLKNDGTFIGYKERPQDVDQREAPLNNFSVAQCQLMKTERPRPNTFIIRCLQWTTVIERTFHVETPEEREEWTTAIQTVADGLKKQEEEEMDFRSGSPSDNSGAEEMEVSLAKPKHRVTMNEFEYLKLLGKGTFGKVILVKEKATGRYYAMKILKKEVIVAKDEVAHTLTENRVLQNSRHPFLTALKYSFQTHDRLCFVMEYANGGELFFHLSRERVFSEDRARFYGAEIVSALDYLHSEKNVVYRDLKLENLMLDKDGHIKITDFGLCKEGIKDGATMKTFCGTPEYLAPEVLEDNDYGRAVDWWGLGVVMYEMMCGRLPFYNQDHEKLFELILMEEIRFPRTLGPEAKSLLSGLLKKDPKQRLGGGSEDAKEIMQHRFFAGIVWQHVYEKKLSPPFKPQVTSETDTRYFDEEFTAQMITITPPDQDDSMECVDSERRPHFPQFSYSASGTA
Assay: AKT enzyme assay
Assay type: biochemical
Conditions: read-out: IC50 AKT
IC50 values for the compounds below.

- compound: "CCN(C)Cc1c(N)ncnc1N1CCC(c2nc(-c3ccc(F)c(C(F)(F)F)c3)cn2CCN(C)C)CC1 [Compound 95]"
  unit-text: "nM"
  IC50: 520
- compound: "Nc1ncnc(N2CCC(c3nc(-c4ccc(F)c(C(F)(F)F)c4)cn3CCN3CCC3)CC2)c1-c1cc[nH]c1 [Compound 110]"
  unit-text: "nM"
  IC50: 1.9
- compound: "Nc1ncnc(N2CCC(c3nc(-c4ccc(Cl)c(F)c4)cn3CCN3CCCC3)CC2)c1C1CCC1 [Compound 260]"
  unit-text: "nM"
  IC50: 67
- compound: "NC(=O)c1c(N)ncnc1N1CCC(c2nc(-c3ccc(F)c(C(F)(F)F)c3)cn2C2CCNCC2)CC1 [Compound 154]"
  unit-text: "nM"
  IC50: 480

----------
Molecular target: His-AKT (Full Length) (Homo sapiens (Human), UniProt P31749)
Experiment: AKT enzyme assay
Format: biochemical
Details: read-out: IC50 AKT
Consider the cut-off 20 nM. If the recorded IC50 is strictly smaller, the label is Y; if not, the label is N.

- compound-string: "CCc1c(N)ncnc1N1CCC(c2nc(-c3ccc(F)c(C)c3)cn2CC2CNC2)CC1"
  category: "Y"
- compound-string: "CCc1c(N)ncnc1N1CCC(c2nc(-c3ccc(F)c(C(F)(F)F)c3)cn2CCN2CCCCC2)CC1"
  category: "Y"
- compound-string: "N#Cc1c(N)ncnc1N1CCC(c2nc(-c3cccc(F)c3)cn2CCN2CCCC2)CC1"
  category: "N"
- compound-string: "Nc1ncnc(N2CCC(c3nc(-c4ccc(F)c(C(F)(F)F)c4)cn3CCN3CCCCC3)CC2)c1-c1ccc(F)cc1"
  category: "N"
- compound-string: "CC(C)Oc1c(N)ncnc1N1CCC(c2nc(-c3ccc(F)c(Cl)c3)cn2CCN2CCCC2)CC1"
  category: "Y"
- compound-string: "Nc1ncnc(N2CCC(c3nc(-c4ccc(C(F)(F)F)cc4)cn3CCN3CCCC3)CC2)c1C1CCC1"
  category: "N"
- compound-string: "Cc1ccc(-c2cn(CCN3CCC3)c(C3CCN(c4ncnc(N)c4C#N)CC3)n2)cc1F"
  category: "N"
- compound-string: "Cc1cc(-c2cn(CCNC(C)C)c(C3CCN(c4ncnc(N)c4C(N)=O)CC3)n2)ccc1F"
  category: "Y"
- compound-string: "Cc1cc(-c2cn(CCN3CCC3)c(C3CCN(c4ncnc(N)c4C#N)CC3)n2)ccc1F"
  category: "Y"
- compound-string: "Cc1cc(-c2cn(CCO)c(C3CCN(c4ncnc(N)c4-c4cn[nH]c4)CC3)n2)ccc1F"
  category: "N"
- compound-string: "NC(=O)c1c(N)ncnc1N1CCC(c2nc(-c3ccc(F)c(F)c3)cn2CCN2CCCC2)CC1"
  category: "N"
- compound-string: "Nc1ncnc(N2CCC(c3nc(-c4cccc(C(F)(F)F)c4)c[nH]3)CC2)c1Br"
  category: "N"
- compound-string: "N#Cc1c(N)ncnc1N1CCC(c2nc(-c3ccc(F)c(C(F)(F)F)c3)cn2CCNCC2CC2)CC1"
  category: "Y"
- compound-string: "CCc1c(N)ncnc1N1CCC(c2nc(-c3ccc(C(F)(F)F)c(F)c3)cn2CCN2CCC(F)CC2)CC1"
  category: "N"
- compound-string: "Nc1ncnc(N2CCC(c3nc(-c4ccnc(C(F)(F)F)c4)cn3CCNC3CC3)CC2)c1Cl"
  category: "Y"
- compound-string: "CCc1c(N)ncnc1N1CCC(c2nc(-c3ccc(F)cc3)cn2CCN2CCC23COC3)CC1"
  category: "N"

----------
pIC50 values for the compounds below.
Target: P70S6K (T412E mutant) (Homo sapiens (Human), UniProt P23443, T412E)
Assay: P70S6K enzyme assay
Format: biochemical
Conditions: read-out: IC50 p70S6K
pIC50: −log10 of the molar value.

- compound-string: "CCc1c(N)ncnc1N1CCC(c2nc(-c3ccc(F)c(C(F)(F)F)c3)cn2CCN2CC(C)C2)CC1"
  pIC50: 8.52
- compound-string: "NC(=O)c1c(N)ncnc1N1CCC(c2nc(-c3ccc(OC(F)F)cc3)cn2CCN2CCC2)CC1"
  pIC50: 7.01
- compound-string: "Nc1ncnc(N2CCC(c3nc(-c4ccc(C(F)(F)F)c(F)c4)cn3CCN3CCCCC3)CC2)c1C1CCC1"
  pIC50: 7.72
- compound-string: "CCc1c(N)ncnc1N1CCC(c2nc(-c3ccc(F)c(C)c3)cn2CCN(C)C)CC1"
  pIC50: 8.39
- compound-string: "Cn1cc(-c2ccc(F)c(C(F)(F)F)c2)nc1C1CCN(c2ncnc(N)c2/C=C/C(N)=O)CC1"
  pIC50: 7.85
- compound-string: "CN(C)CCn1cc(-c2ccc(F)c(C(F)(F)F)c2)nc1C1CCN(c2ncnc(N)c2/C=C/C2CC2)CC1"
  pIC50: 7.92
- compound-string: "Cc1cc(-c2cn(CCNC(C)(C)C)c(C3CCN(c4ncnc(N)c4-c4cn[nH]c4)CC3)n2)ccc1F"
  pIC50: 8.55
- compound-string: "N#Cc1c(N)ncnc1N1CCC(c2nc(-c3cnc(F)c(Cl)c3)cn2CCN2CCC2)CC1"
  pIC50: 9.10
- compound-string: "Cn1cc(-c2ccc(F)c(C(F)(F)F)c2)nc1C1CCN(c2ncnc(N)c2-c2ccc(CO)cc2)CC1"
  pIC50: 8.72
- compound-string: "NCCn1cc(-c2ccc(F)c(C(F)(F)F)c2)nc1C1CCN(c2ncnc(N)c2C(N)=O)CC1"
  pIC50: 8.82
- compound-string: "Cc1cc(-c2cn(CCN3CCC3)c(C3CCN(c4ncnc(N)c4-c4cn[nH]c4)CC3)n2)ccc1F"
  pIC50: 8.36
- compound-string: "Cc1cc(-c2cn(CCN(C)C)c(C3CCN(c4ncnc(N)c4OC(C)C)CC3)n2)ccc1F"
  pIC50: 8.89
- compound-string: "C=Cc1c(N)ncnc1N1CCC(c2nc(-c3ccc(F)c(C(F)(F)F)c3)cn2CC2CNC2)CC1"
  pIC50: 7.92
- compound-string: "Cn1cc(-c2ccc(F)c(C(F)(F)F)c2)nc1C1CCN(c2ncnc(N)c2C#N)CC1"
  pIC50: 8.82
- compound-string: "Cn1cc(-c2ccc(F)c(C(F)(F)F)c2)nc1C1CCN(c2ncnc(N)c2C(N)=O)CC1"
  pIC50: 8.59

----------
Biological target: His-AKT (Full Length) (Homo sapiens (Human))
Assay: AKT enzyme assay
Type: biochemical
Details: read-out: IC50 AKT
IC50 values for the compounds below.

- compound-string: "NC(=O)c1c(N)ncnc1N1CCC(c2nc(-c3ccc(F)c(C(F)(F)F)c3)cn2CC2CNC2)CC1"
  unit-text: "nM"
  value-qualifier: "="
  IC50: 27
- compound-string: "CCc1c(N)ncnc1N1CCC(c2nc(-c3ccc(F)c(Cl)c3)cn2CCN2CCC2)CC1"
  unit-text: "nM"
  value-qualifier: "="
  IC50: 9.2
- compound-string: "CC(C)(C)c1cc(-c2cn(CCN3CCC3)c(C3CCN(c4ncnc(N)c4C(N)=O)CC3)n2)ccn1"
  unit-text: "nM"
  value-qualifier: "="
  IC50: 170
- compound-string: "CCOCCc1c(N)ncnc1N1CCC(c2nc(-c3ccc(F)c(C(F)(F)F)c3)cn2CCN(C)C)CC1"
  unit-text: "nM"
  value-qualifier: "="
  IC50: 340
- compound-string: "Cc1cc(-c2cn(CC3CNC3)c(C3CCN(c4ncnc(N)c4C#N)CC3)n2)ccc1F"
  unit-text: "nM"
  value-qualifier: "="
  IC50: 15
- compound-string: "Cc1ccc(-c2cn(CCN3CCC3)c(C3CCN(c4ncnc(N)c4C(N)=O)CC3)n2)cc1C(F)(F)F"
  unit-text: "nM"
  value-qualifier: "="
  IC50: 420
- compound-string: "CCc1c(N)ncnc1N1CCC(c2nc(-c3ccc(F)c(C(F)(F)F)c3)cn2C2CCNCC2)CC1"
  unit-text: "nM"
  value-qualifier: "="
  IC50: 190
- compound-string: "Cc1ccc(-c2cn(CCN3CCC3)c(C3CCN(c4ncnc(N)c4C#N)CC3)n2)cc1Cl"
  unit-text: "nM"
  value-qualifier: "="
  IC50: 13
- compound-string: "N#Cc1c(N)ncnc1N1CCC(c2nc(-c3ccc(F)c(F)c3)cn2CCN2CCC2)CC1"
  unit-text: "nM"
  value-qualifier: "="
  IC50: 9.3
- compound-string: "N#Cc1c(N)ncnc1N1CCC(c2nc(-c3ccc(F)c(C(F)(F)F)c3)cn2CCN2CCC2)CC1"
  unit-text: "nM"
  value-qualifier: "="
  IC50: 2.6
- compound-string: "NCCn1cc(-c2ccc(F)c(C(F)(F)F)c2)nc1C1CCN(c2ncnc(N)c2C(N)=O)CC1"
  unit-text: "nM"
  value-qualifier: "="
  IC50: 15
- compound-string: "CNCCn1cc(-c2ccnc(C(F)(F)F)c2)nc1C1CCN(c2cc(N)ncn2)CC1"
  unit-text: "nM"
  value-qualifier: ">"
  IC50: 1000
- compound-string: "CCc1c(N)ncnc1N1CCC(c2nc(-c3ccc(F)c(C(F)(F)F)c3)cn2CCN2CCC2)CC1"
  unit-text: "nM"
  value-qualifier: "="
  IC50: 4.1
- compound-string: "Nc1ncnc(N2CCC(c3nc(-c4ccc(F)cc4)cn3CCN3CCCC3)CC2)c1Cl"
  unit-text: "nM"
  value-qualifier: "="
  IC50: 3.3
- compound-string: "Cc1cc(-c2cn(CC3CNC3)c(C3CCN(c4ncnc(N)c4OCC(F)(F)F)CC3)n2)ccc1F"
  unit-text: "nM"
  value-qualifier: "="
  IC50: 7.1
- compound-string: "N#Cc1c(N)ncnc1N1CCC(c2nc(-c3ccc(F)c(Cl)c3)cn2CCN2CCCC2)CC1"
  unit-text: "nM"
  value-qualifier: "="
  IC50: 1.5
- compound-string: "Nc1ncnc(N2CCC(c3nc(-c4ccc(F)c(C(F)(F)F)c4)cn3CCN3CCCCC3)CC2)c1-c1cccc(F)c1"
  unit-text: "nM"
  value-qualifier: "="
  IC50: 85
- compound-string: "CN(C)CCn1cc(-c2ccc(F)c(C(F)(F)F)c2)nc1C1CCN(c2ncnc(N)c2C(N)=O)CC1"
  unit-text: "nM"
  value-qualifier: "="
  IC50: 84
- compound-string: "Cc1cc(-c2cn(CCNCC3CC3)c(C3CCN(c4ncnc(N)c4C(N)=O)CC3)n2)ccc1F"
  unit-text: "nM"
  value-qualifier: "="
  IC50: 8.4
- compound-string: "N#Cc1c(N)ncnc1N1CCC(c2nc(-c3ccc(F)c(C(F)(F)F)c3)cn2CCNC2CCCC2)CC1"
  unit-text: "nM"
  value-qualifier: "="
  IC50: 0.8
- compound-string: "Cc1cc(-c2cn(CCN3CCC3)c(C3CCN(c4ncnc(N)c4-c4cn[nH]c4)CC3)n2)ccc1F"
  unit-text: "nM"
  value-qualifier: "="
  IC50: 5.5
- compound-string: "CCc1c(N)ncnc1N1CCC(c2nc(-c3ccc(F)c(C(F)(F)F)c3)cn2CCN(C)C)CC1"
  unit-text: "nM"
  value-qualifier: "="
  IC50: 12
- compound-string: "C=Cc1c(N)ncnc1N1CCC(c2nc(-c3ccc(F)cc3)cn2CCN2CCCC2)CC1"
  unit-text: "nM"
  value-qualifier: "="
  IC50: 16
- compound-string: "Nc1ncnc(N2CCC(c3nc(-c4ccc(F)c(C(F)(F)F)c4)cn3CCN3CCCC3)CC2)c1Br"
  unit-text: "nM"
  value-qualifier: "="
  IC50: 14
- compound-string: "CCc1c(N)ncnc1N1CCC(c2nc(-c3ccc(F)c(C)c3)cn2CCN(CC)CC)CC1"
  unit-text: "nM"
  value-qualifier: "="
  IC50: 2.6
- compound-string: "CN(C)CCn1cc(-c2ccc(F)c(C(F)(F)F)c2)nc1C1CCN(c2ncnc(N)c2-c2ccc(C(C)(C)O)cc2)CC1"
  unit-text: "nM"
  value-qualifier: "="
  IC50: 190
- compound-string: "Nc1ncnc(N2CCC(c3nc(-c4ccc(C(F)(F)F)c(F)c4)cn3CCN3CCCCC3)CC2)c1C1CCC1"
  unit-text: "nM"
  value-qualifier: "="
  IC50: 28
- compound-string: "Nc1ncnc(N2CCC(c3nc(-c4cccc(F)c4)cn3CCN3CCCC3)CC2)c1Br"
  unit-text: "nM"
  value-qualifier: "="
  IC50: 5.9
- compound-string: "CN1CC(Cn2cc(-c3ccc(F)c(C(F)(F)F)c3)nc2C2CCN(c3ncnc(N)c3C(N)=O)CC2)C1"
  unit-text: "nM"
  value-qualifier: "="
  IC50: 81
- compound-string: "CC(C)c1cc(-c2cn(CCN3CCC3)c(C3CCN(c4ncnc(N)c4C(N)=O)CC3)n2)ccn1"
  unit-text: "nM"
  value-qualifier: "="
  IC50: 37
